- TARGET_SYSTEM: 5-HT2A receptor (Homo sapiens)
- Construct: purchased PerkinElmer
- Sequence (P28223 whole entry): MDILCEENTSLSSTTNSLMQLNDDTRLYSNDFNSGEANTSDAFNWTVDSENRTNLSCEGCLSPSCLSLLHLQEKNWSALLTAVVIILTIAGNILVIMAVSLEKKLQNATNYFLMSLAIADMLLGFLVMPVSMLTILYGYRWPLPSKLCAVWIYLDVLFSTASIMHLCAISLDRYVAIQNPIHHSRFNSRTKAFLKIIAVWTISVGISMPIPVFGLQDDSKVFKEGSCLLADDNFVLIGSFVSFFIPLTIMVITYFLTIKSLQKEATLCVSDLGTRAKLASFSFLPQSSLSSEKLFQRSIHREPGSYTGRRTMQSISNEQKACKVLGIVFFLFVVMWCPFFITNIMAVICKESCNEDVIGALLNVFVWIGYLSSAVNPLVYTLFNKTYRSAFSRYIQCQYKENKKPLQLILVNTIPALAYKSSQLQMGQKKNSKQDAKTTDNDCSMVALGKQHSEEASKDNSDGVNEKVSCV
- ASSAY_INFO: Radioligand binding assay, serotoninergic 5-HT2A receptors
- EXPERIMENTAL_CONTEXT: binding assay result in %, Table 5a
The reader will find reported inhibition at 1 µM values listed item by item below.
Your answer should be a plain number; it is taken to be in %.

- COMPOUND: "Cn1ccc2c(S(=O)(=O)NCC3CCN(CCOc4cccc5ccccc45)C3)cccc21 (stereo not shown) [Compound 275]"
  UNIT_TAG: "%"
  inhibition at 1 µM: 91
- COMPOUND: "O=S(=O)(NC1CCN(CCCc2c[nH]c3ccc(F)cc23)C1)c1ccc(F)cc1 (stereo not shown) [Compound 75]"
  UNIT_TAG: "%"
  inhibition at 1 µM: 90
- COMPOUND: "O=S(=O)(NCC1CCN(CCOc2cccc3ccccc23)C1)c1cc2ccc(Cl)cc2s1 (stereo not shown) [Compound 269]"
  UNIT_TAG: "%"
  inhibition at 1 µM: 91

Then there is this compound:
Task item: Fill in reported inhibition at 1 µM for this entry: O=S(=O)(NCC1CCN(CCCc2noc3cc(F)ccc23)C1)c1ccc2c(c1)OCO2 (stereo not shown) [Compound 235]
Reply: 91
